In this section, each of the molecules is paired with its reported melting point.

INSERT INTO results (molecule, outcome_measure, obs_value) VALUES
  ('C/N=C(\NC)N1CCN(C(C(=O)N(C)CCc2cc(C(F)(F)F)cc(C(F)(F)F)c2)c2ccccc2)CC1 (centres unmarked)', 'melting point', '126 to 140 °C'),
  ('CC(C)/N=C(/NC(C)C)N1CCN(C(C(=O)N(C)CCc2cc(C(F)(F)F)cc(C(F)(F)F)c2)c2ccccc2)CC1 (racemic)', 'melting point', '176 to 186 °C (dec.)'),
  ('CN(CCc1cc(C(F)(F)F)cc(C(F)(F)F)c1)C(=O)[C@H](c1ccccc1)N1CCN(/C(=N/C(=O)c2ccccc2)N(C)C)CC1.Cl', 'melting point', '124 to 128 °C'),
  ('CN(CCc1cc(C(F)(F)F)cc(C(F)(F)F)c1)C(=O)C(c1ccccc1)N1CCN(C(=N)Nc2ccccc2)CC1 (centres unmarked)', 'melting point', '240 to 245 °C (dec.)');

Next up:
Give the value of melting point reported for the following: CN(CCc1cc(C(F)(F)F)cc(C(F)(F)F)c1)C(=O)C(c1ccccc1)N1CCN(C2=NCCN2)CC1 (centres unmarked)
163 to 173 °C
